- Assay Target: Sodium-dependent dopamine transporter (Rattus norvegicus, UniProt P23977)
- Sequence (P23977 whole entry): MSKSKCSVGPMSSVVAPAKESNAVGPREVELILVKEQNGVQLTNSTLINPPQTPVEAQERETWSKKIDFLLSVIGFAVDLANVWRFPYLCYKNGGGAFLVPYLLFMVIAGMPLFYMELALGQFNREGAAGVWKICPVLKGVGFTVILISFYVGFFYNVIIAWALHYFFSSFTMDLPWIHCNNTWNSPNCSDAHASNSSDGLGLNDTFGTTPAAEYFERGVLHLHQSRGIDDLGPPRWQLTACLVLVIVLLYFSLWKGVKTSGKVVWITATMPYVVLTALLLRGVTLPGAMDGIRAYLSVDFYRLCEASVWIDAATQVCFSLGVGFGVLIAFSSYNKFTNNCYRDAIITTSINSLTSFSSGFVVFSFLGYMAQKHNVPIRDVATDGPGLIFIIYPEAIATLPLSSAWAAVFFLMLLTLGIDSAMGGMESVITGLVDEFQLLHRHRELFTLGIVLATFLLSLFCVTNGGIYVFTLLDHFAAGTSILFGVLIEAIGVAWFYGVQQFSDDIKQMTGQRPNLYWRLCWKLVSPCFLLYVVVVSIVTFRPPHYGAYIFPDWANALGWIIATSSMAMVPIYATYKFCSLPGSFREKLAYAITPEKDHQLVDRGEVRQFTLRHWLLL
- Method: Inhibitory activity against [3H]dopamine uptake in rat striatal tissue
- Type: functional, tissue-based, Striatum
Could you please report measured IC50 for the items listed next?
One number for each entry, in nM.

Study these solved cases before continuing.
{"Smiles Code": "COC(=O)[C@@H](c1cccc(Cl)c1)[C@@H]1CCCCN1", "Assay Target": "Sodium-dependent dopamine transporter (Rattus norvegicus, UniProt P23977)", "Numeric Readout": 23}
{"Smiles Code": "COC(=O)[C@@H](c1ccc(Cl)cc1)[C@@H]1CCCCN1", "Assay Target": "Sodium-dependent dopamine transporter (Rattus norvegicus, UniProt P23977)", "Numeric Readout": 73.8}
{"Smiles Code": "COC(=O)[C@@H](c1ccc(Cl)c(Cl)c1)[C@@H]1CCCCN1", "Assay Target": "Sodium-dependent dopamine transporter (Rattus norvegicus, UniProt P23977)", "Numeric Readout": 7}

# IC50 of `COC(=O)[C@@H](c1ccccc1O)[C@@H]1CCCCN1` = 35800
